Listed below: thermal shift delta Tm values for each entry.
System: LOC_OS01G63280-cb003;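 note: purified Escherichia coli-expressed rice kinase domain construct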
Experiment: thermal shift delta Tm vs DMSO control; higher = stronger stabilization (binding)
Conditions: 12.5 µM; protein concentration 2 µM

- MOLECULE: "COc1cc(OC)c(C=C2C(=O)Nc3ccccc32)c(OC)c1"
  thermal shift delta Tm: "-0.13 °C"
- MOLECULE: "COc1cc2c(Oc3ccc4[nH]c(C)cc4c3F)ncnc2cc1OCCCN1CCCC1"
  thermal shift delta Tm: "0.02 °C"
- MOLECULE: "Oc1ccc(Nc2nc(-c3ccc(Cl)cc3)cs2)cc1"
  thermal shift delta Tm: "3.13 °C"
- MOLECULE: "O=C(NOCCO)c1ccc2cncn2c1Nc1ccc(I)cc1F"
  thermal shift delta Tm: "0.2 °C"
- MOLECULE: "CNC(=O)c1ccccc1Sc1ccc2c(/C=C/c3ccccn3)n[nH]c2c1"
  thermal shift delta Tm: "0.65 °C"
- MOLECULE: "C[C@@H](Oc1cc(-c2cnn(C3CCNCC3)c2)cnc1N)c1c(Cl)ccc(F)c1Cl"
  thermal shift delta Tm: "0.44 °C"
- MOLECULE: "O=C(NOCC(O)CO)c1cc(Br)c(F)c(F)c1Nc1ccc(I)cc1F (stereo not given)"
  thermal shift delta Tm: "1.18 °C"
- MOLECULE: "S=C(NCc1ccc2c(c1)OCO2)N1CCN(c2ncnc3c2oc2ccccc23)CC1"
  thermal shift delta Tm: "0.5 °C"
- MOLECULE: "COc1cc(N2CCC(N3CCN(C)CC3)CC2)ccc1Nc1ncnc(Nc2ccccc2S(=O)(=O)C(C)C)n1"
  thermal shift delta Tm: "0.72 °C"
- MOLECULE: "OC(c1cc(-c2ccc(Cl)cc2)nc2ccccc12)C1CCCCN1 (stereo not given)"
  thermal shift delta Tm: "0.78 °C"
